Every entry's value here was drawn from ChEMBL document CHEMBL1811771.

Measured MIC by item
- Tested on: Mycobacterium tuberculosis
- EXPERIMENT_SUMMARY: Antimycobacterial activity against Mycobacterium tuberculosis H37Rv transfected with pFPCA-luxAB grown under anaerobic condition for 10 days followed by 24 hrs incubation under aerobic condition by LORA assay
- Format: functional
Report the figure in µM without appending any unit label.

# example entries with known answers
1. COc1ccc(Cn2ccc3c(-c4ccco4)nccc32)cc1 | 28
2. COc1ccc(Cn2cnc3c(-c4ccco4)nc(Cl)cc32)cc1 | 48
3. O=[N+]([O-])c1cn2c(n1)OC[C@@H](OCc1ccc(OC(F)(F)F)cc1)C2 | 3.11
4. CO[C@H]1/C=C/O[C@@]2(C)Oc3c(C)c(O)c4c(O)c(c(/C=N/N5CCN(C)CC5)c(O)c4c3C2=O)NC(=O)/C(C)=C\C=C\[C@H](C)[C@H](O)[C@@H](C)[C@@H](O)[C@@H](C)[C@H](OC(C)=O)[C@@H]1C | 0.97

Okay, now this compound:
Looking for the measured MIC of "COc1ccc(Cn2cnc3c(-c4ccco4)nccc32)cc1" , can you help?
80
